Recorded IC50 for the following compounds
Biological target: PI3K beta (Homo sapiens, UniProt P42338)
Construct: for the full-length p110-b subunit are generated and fused by overlapping PCR; p85(iSH2) fusion partner (same polypeptide; see partner chain) (N); Gly linker (N); His tag (C); Tn5 (Trichoplusia ni) or TiniPro insect cells
Sequence (P42338 with tags, fused parts or gaps limits assumed): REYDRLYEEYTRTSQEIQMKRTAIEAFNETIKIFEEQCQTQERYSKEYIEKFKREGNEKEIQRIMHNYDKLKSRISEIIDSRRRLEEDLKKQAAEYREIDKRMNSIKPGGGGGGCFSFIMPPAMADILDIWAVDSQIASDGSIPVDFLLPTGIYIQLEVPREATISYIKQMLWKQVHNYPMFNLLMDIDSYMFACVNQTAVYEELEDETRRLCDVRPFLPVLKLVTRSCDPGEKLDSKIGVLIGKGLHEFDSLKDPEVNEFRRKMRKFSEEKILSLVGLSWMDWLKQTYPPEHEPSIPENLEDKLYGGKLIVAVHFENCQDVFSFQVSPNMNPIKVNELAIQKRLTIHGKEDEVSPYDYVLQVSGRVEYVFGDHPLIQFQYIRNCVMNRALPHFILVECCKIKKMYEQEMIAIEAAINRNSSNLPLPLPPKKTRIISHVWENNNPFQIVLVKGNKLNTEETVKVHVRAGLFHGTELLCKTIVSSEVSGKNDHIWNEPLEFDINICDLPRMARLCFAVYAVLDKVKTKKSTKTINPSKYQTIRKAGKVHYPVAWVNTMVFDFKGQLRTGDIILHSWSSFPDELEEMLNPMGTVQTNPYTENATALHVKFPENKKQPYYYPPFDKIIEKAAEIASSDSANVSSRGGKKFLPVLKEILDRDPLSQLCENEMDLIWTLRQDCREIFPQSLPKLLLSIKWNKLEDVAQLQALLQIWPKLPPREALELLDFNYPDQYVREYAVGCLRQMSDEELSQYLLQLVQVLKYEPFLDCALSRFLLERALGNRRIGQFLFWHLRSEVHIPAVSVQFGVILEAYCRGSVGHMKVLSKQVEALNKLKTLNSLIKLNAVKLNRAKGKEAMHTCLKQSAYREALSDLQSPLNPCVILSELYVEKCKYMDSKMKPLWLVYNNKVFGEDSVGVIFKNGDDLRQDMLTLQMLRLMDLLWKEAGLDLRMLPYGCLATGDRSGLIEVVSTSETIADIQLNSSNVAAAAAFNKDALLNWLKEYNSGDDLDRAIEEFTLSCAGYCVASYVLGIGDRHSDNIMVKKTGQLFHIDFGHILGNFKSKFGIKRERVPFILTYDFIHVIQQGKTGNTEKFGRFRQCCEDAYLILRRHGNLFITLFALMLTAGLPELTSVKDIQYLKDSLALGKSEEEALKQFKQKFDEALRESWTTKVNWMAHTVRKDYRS
Assay: PI3K beta enzymatic assay (Kinase-Glo luminescence)
Conditions: Enzymatic Data

Task: What measured IC50 goes with CCS(=O)(=O)c1ccc(-c2c(C)nc3ccc(-c4ccc(OCCOCCOCCOC)c(OC)c4)nn23)cc1 ?
Output: > 9.1 µM

Task: What measured IC50 goes with COc1cc(-c2ccc3nc(C)c(-c4cnc(N)c(C(F)(F)F)c4)n3n2)ccc1OCCNC(=O)Nc1cccc(C(F)(F)F)c1 ?
Output: > 9.1 µM

Task: What measured IC50 goes with COc1cc(-c2ccc3nc(C)c(-c4cnc(N)c(C(F)(F)F)c4)n3n2)ccc1OCCNC(=O)c1cc(OC)c(OC)c(OC)c1 ?
Output: > 9.1 µM

Task: What measured IC50 goes with COc1cc(-c2ccc3nc(C)c(-c4cnc(N)c(C(F)(F)F)c4)n3n2)ccc1OCCN ?
Output: 0.051 µM
